- Assay Target: human CD28 (human, UniProt P10747 19-220)
- Procedure Details: cell-based or functional assay
Reported Property: Luciferase assay (EC50) (nM)
Report the value in nM with no unit label.

Ask: Look up Luciferase assay (EC50): 1h-238 (other) VL: DIQMTQSPSSLSASVGDRVTITCRASQHINASLGWYQQKPGKAPKLLIYWASQLQSGVPSRFSGSGSGTDFTLTISSLQPEDFATYYCQQMVRTPFTFGQGTKVEIKR
Result: 775

Ask: Look up Luciferase assay (EC50): 1h-99-226 (other) VH: EVQLLESGGGLVQPGGSLRLSCAASGFTFKSANMSWVRQAPGKGLEWVSWIEDTGTQTFYADSVKGRFTISRDNSKNTLYLQMNSLRAEDTAVYYCAKSPFGPLYGFDYRGQGTLVTVSS
Result: 10

Ask: Look up Luciferase assay (EC50): 1h-239-804 (other) VL: DIQMTQSPSSLSASVGDRVTITCRASQSIYPFLEWYQQKPGKAPKLLIYFTSRLQSGVPSRFSGSGSGTDFTLTISSLQPEDFATYYCLQNVSMPATFSQGTKVEIKR
Result: 5

Ask: Look up Luciferase assay (EC50): 1h-99-225 (other) VH: EVQLLESGGGLVQPGGSLRLSCAASGFTFRLQNMSWVRQAPGKGLEWVSWIEDTGTQTFYADSVKGRFTISRDNSKNTLYLQMNSLRAEDTAVYYCAKSPFGPLYGFDYRGQGTLVTVSS
Result: 14

Ask: Look up Luciferase assay (EC50): 1h-99-2116 (other) VH: EVQLLESGGGLVQPGGSLRLSCAASGFTFKDKNMSWVRQAPGKGLEWVSWIEASGVQTFYADSVKGRFTISRDNSKNTLYLQMNSLRAEDTAVYYCAKSPFGPLYGFDYRGQGTLVTVSS
Result: 5

Ask: Look up Luciferase assay (EC50): 1h-239-859 (other) VL: DIQMTQSPSSLSASVGDRVTITCRASQSIYPFLEWYQQKPGKAPKLLIYFSSMLASGVPSRFSGSGSGTDFTLTISSLQPEDFATYYCLQNVTNPATFSQGTKVEIKR
Result: 5

Ask: Look up Luciferase assay (EC50): 1h-32 (other) VL: DIQMTQSPSSLSASVGDRVTITCRASQNIGHGLAWYQQKPGKAPKLLIYWVSLLQSGVPSRFSGSGSGTDFTLTISSLQPEDFATYYCQQTLSKPFTFGQGTKVEIKR
Result: 4500

Ask: Look up Luciferase assay (EC50): 1h-116 (other) VL: DIQMTQSPSSLSASVGDRVTITCRASQSIYPFLEWYQQKPGKAPRLLIYFTSRLQSGVPSRFSGSGSGTDFTLTISSLQPEDFATYYCQQNATNPATFGQGTKVEIKR
Result: 2500
